target: Coagulation factor X (Homo sapiens) (UniProt P00742); experiment: Inhibition of human factor 10a assessed as residual activity at 500 uM by spectrophotometric assay
Sequence (P00742 41-179 limits assumed): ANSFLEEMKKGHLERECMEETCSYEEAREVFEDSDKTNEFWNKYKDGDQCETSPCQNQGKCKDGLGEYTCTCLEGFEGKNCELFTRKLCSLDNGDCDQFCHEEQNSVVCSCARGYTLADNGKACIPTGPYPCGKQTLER
Sequence (P00742 235-488 limits assumed): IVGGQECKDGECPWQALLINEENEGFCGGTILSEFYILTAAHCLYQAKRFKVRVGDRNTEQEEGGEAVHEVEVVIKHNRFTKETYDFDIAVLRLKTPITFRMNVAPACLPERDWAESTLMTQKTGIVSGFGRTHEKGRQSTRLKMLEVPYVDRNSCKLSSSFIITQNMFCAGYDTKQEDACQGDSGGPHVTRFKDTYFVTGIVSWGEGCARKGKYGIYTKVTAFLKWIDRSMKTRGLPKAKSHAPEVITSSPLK
Recorded Activity determines the group label, using c1: < 30%; c2: ≥ 30% and < 90%; c3: ≥ 90%

Chem smiles: CCOC(=O)c1c(C)oc2cc(OC)c(OCc3oc4cc(OC)c(OCc5nc6ccc(OS(=O)(=O)O)cc6s5)cc4c3C(=O)OCC)cc12
Class label: c3
--
Chem smiles: Cc1nc2ccc(OS(=O)(=O)O)cc2s1
Class label: c2
--
Chem smiles: Cc1nc2ccc(OCc3nc4ccc(OS(=O)(=O)O)cc4s3)cc2s1
Class label: c3
--
Chem smiles: CCOC(=O)c1c(COc2cc3c(C(=O)OCC)c(COc4cc5c(C(=O)OCC)c(C)oc5cc4OC)oc3cc2OC)[nH]c2ccc(OS(=O)(=O)O)cc12
Class label: c2
--
Chem smiles: CCOC(=O)c1c(COc2cc3c(C(=O)OCC)c(Cc4ccccc4)oc3cc2OC)[nH]c2ccc(OS(=O)(=O)O)cc12
Class label: c2
--
Chem smiles: CCOC(=O)c1c(C)[nH]c2ccc(OCc3c(C(=O)OCC)c4cc(OS(=O)(=O)O)ccc4n3C(=O)OC(C)(C)C)cc12
Class label: c1
--
Chem smiles: COc1cc2occ(C(=O)OC(C)(C)C)c2cc1OCc1nc2ccc(OS(=O)(=O)O)cc2s1
Class label: c1
--
Chem smiles: CCOC(=O)c1c(COc2cc3c(C(=O)OCC)coc3cc2OC)[nH]c2ccc(OS(=O)(=O)O)cc12
Class label: c2
--
Chem smiles: CCOC(=O)c1c(C)[nH]c2ccc(OS(=O)(=O)O)cc12
Class label: c3

---

biological target: Coagulation factor XII (Homo sapiens); test: Inhibition of human factor 12a assessed as residual activity at 500 uM by spectrophotometric assay
Observed property: Activity (%)

Chem smiles: CCOC(=O)c1c(Cc2ccccc2)oc2cc(OC)c(OCc3nc4ccc(OS(=O)(=O)O)cc4s3)cc12
Observed property: Activity
Result: 96
--
Chem smiles: CCOC(=O)c1c(C)[nH]c2ccc(OCc3c(C(=O)OCC)c4cc(OS(=O)(=O)O)ccc4n3C(=O)OC(C)(C)C)cc12
Observed property: Activity
Result: 92
--
Chem smiles: CCOC(=O)c1c(C)[nH]c2ccc(OS(=O)(=O)O)cc12
Observed property: Activity
Result: 90
--
Chem smiles: CCOC(=O)c1c(COc2cc3c(C(=O)OCC)c(Cc4ccccc4)oc3cc2OC)[nH]c2ccc(OS(=O)(=O)O)cc12
Observed property: Activity
Result: 100
--
Chem smiles: Cc1nc2ccc(OCc3nc4ccc(OS(=O)(=O)O)cc4s3)cc2s1
Observed property: Activity
Result: 97
--
Chem smiles: CCOC(=O)c1c(COc2cc3c(C(=O)OCC)coc3cc2OC)[nH]c2ccc(OS(=O)(=O)O)cc12
Observed property: Activity
Result: 97
--
Chem smiles: Cc1nc2ccc(OS(=O)(=O)O)cc2s1
Observed property: Activity
Result: 95
--
Chem smiles: CCOC(=O)c1c(C)oc2cc(OC)c(OCc3oc4cc(OC)c(OCc5nc6ccc(OS(=O)(=O)O)cc6s5)cc4c3C(=O)OCC)cc12
Observed property: Activity
Result: 100
--
Chem smiles: COc1cc2occ(C(=O)OC(C)(C)C)c2cc1OCc1nc2ccc(OS(=O)(=O)O)cc2s1
Observed property: Activity
Result: 100
--
Chem smiles: CCOC(=O)c1c(COc2cc3c(C(=O)OCC)c(COc4cc5c(C(=O)OCC)c(C)oc5cc4OC)oc3cc2OC)[nH]c2ccc(OS(=O)(=O)O)cc12
Observed property: Activity
Result: 97
